Recorded inhibition of viability for the following compounds
experimental.details: HCT116 colon cancer cell growth inhibition, primary screen, CellTiter-Glo luminescence, NPC library (AID 1117342)
experimental.parameters: at 20 µM (top of the series)

- compound: "NCC1CCC(C(=O)O)CC1 (stereo not drawn)"
  result.unit: "%"
  inhibition of viability: -10.3
- compound: "CC(Cc1ccccc1)(NC(=O)CN)c1ccccc1 (stereo not drawn)"
  result.unit: "%"
  inhibition of viability: 13.7
- compound: "Cc1c[nH]c2ccccc12"
  result.unit: "%"
  inhibition of viability: 10.3
- compound: "Cc1nccn1CC1CCc2c(c3ccccc3n2C)C1=O (stereo not drawn)"
  result.unit: "%"
  inhibition of viability: 24.8
- compound: "COc1ccc(NS(=O)(=O)c2ccc(N)cc2)nn1"
  result.unit: "%"
  inhibition of viability: -7.97
- compound: "COc1ccc(C(=O)c2ccccc2)c(O)c1"
  result.unit: "%"
  inhibition of viability: 14.4
- compound: "O=C(CCNNC(=O)c1ccncc1)NCc1ccccc1"
  result.unit: "%"
  inhibition of viability: -8.3
- compound: "CCN(CC)C(=O)N1CCN(C)CC1"
  result.unit: "%"
  inhibition of viability: 5.3
